From: patent US7615361B2

assay: Solubility in culture medium (nephelometry); format: physicochemical; settings: 37 °C, plasma or biological fluid, kinetic from dmso stock, dosing medium, 37° C.; SK-MEL28 24 HR; read-out: Highest Soluble Concentration
Observable: solubility (µM)
Numbers only, in µM.

// returns reported solubility for input C=C(C)[C@H]1Cc2c(ccc3c2O[C@@H]2COc4cc(OC)c(OC)cc4[C@@H]2C3=O)O1 [ROTENONE, Rotenone]
10

* * *

Assay: Solubility in culture medium (nephelometry)
Assay type: physicochemical
Conditions: 37 °C, plasma or biological fluid, kinetic from dmso stock, dosing medium, 37° C.; SK-MEL28 24 HR, run #2; read-out: Highest Soluble Concentration
Experimental: Solubility: The test compounds were prepared in DMSO and the appropriate amounts were then added to complete medium containing 10% bovine serum […] at 37° C. The samples were evaluated using a light scattering technique and a Nephaloskan instrument. Solubility Assay: The test compounds were prepared in DMSO and the appropriate amounts were then added to complete medium containing 10% bovine serum at 37° C. […]
Observable: solubility (µM)
One number for each entry, in µM.

// returns reported solubility for input C=C(C)[C@H]1Cc2c(ccc3c2O[C@@H]2COc4cc(OC)c(OC)cc4[C@@H]2C3=O)O1
100
